molecular target: mA2a/CHO (Mus musculus (Mouse)); test: cAMP inhibition assay in mA2a/CHO cells, 10 μM adenosine; type: cell-based; details: read-out: cAMP & FLIPR IC50 (nM) mA2a;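 further: compounds preincubated 30 min at 37 °C before the adenosine challenge, then 30 min further stimulation, readout after 60 min detection reagent incubation at room temperature in 384-well plates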
Sequence (Q60613 whole entry): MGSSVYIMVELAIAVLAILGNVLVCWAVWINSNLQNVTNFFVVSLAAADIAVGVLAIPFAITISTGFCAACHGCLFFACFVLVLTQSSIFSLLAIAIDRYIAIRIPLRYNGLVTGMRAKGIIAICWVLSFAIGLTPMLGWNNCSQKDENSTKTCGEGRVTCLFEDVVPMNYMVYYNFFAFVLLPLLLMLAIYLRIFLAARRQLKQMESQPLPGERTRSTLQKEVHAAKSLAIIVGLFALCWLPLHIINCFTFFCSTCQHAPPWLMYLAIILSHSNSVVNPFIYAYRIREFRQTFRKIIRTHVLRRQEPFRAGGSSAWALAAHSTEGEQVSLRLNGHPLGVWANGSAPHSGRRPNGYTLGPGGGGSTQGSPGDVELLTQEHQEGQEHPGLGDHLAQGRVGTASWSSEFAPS
So basically, if IC50 comes in under 60 nM it's YES, and if it's 60 nM or more it's NO.

molecule: Cc1cnc2ccc(-c3nc(C(=O)NC[C@@H]4CCCN4C)c(N)nc3-c3ccc(F)cc3)cn12
categoryLabel: NO
--
molecule: COc1ccccc1C(=O)NCc1nc(-c2cc(C)nc(C)c2)c(-c2ccc(F)cc2)nc1N
categoryLabel: NO
--
molecule: CN1CCCC1CNC(=O)c1nc(-c2ccc3ncc(C(F)(F)F)n3c2)c(-c2ncco2)nc1N (single isomer, unassigned) [Cmpd. 202]
categoryLabel: NO
--
molecule: CNc1cccc(CNC(=O)c2nc(-c3ccc(=O)n(C)c3)c(-c3ncco3)nc2N)n1
categoryLabel: NO
--
molecule: COc1ccccc1CNC(=O)c1nc(-c2cc(C)nc(Cl)c2)c(-c2ccc(F)cc2)nc1N
categoryLabel: NO
--
molecule: Cc1nc(CNC(=O)c2nc(-c3ccc4nccn4c3)c(-c3ncco3)nc2N)cs1
categoryLabel: NO
--
molecule: Cn1cc(-c2nc(C(=O)NC(CO)c3c(F)cccc3F)c(N)nc2-c2ncco2)ccc1=O (stereo not shown)
categoryLabel: NO
--
molecule: Cc1ccn(-c2nc(N)c(C(=O)Nc3ccccc3OC(F)F)nc2-c2ccc(=O)n(C)c2)n1
categoryLabel: NO
--
molecule: CC(NC(=O)c1nc(-c2ccc(=O)n(C)c2)c(-c2ncco2)nc1N)c1c(F)cccc1F (stereo not shown) [Example 20]
categoryLabel: NO
--
molecule: COc1ccccc1CNC(=O)c1nc(-c2ccc(=O)n(C(C)C)c2)c(-c2ccc(F)cc2)nc1N
categoryLabel: YES
--
molecule: Cn1cc(-c2nc(C(=O)NCc3c(F)cccc3Cl)c(N)nc2-c2ncco2)ccc1=O
categoryLabel: YES
--
molecule: Cn1cc(-c2nc(C(=O)NCc3c(F)cccc3N3CCOCC3)c(N)nc2-c2ncco2)ccc1=O
categoryLabel: YES
--
molecule: COCCNC(=O)c1nc(-c2ccc3ncc(C)n3c2)c(-c2ncco2)nc1N
categoryLabel: YES
--
molecule: COc1ccccc1CNC(=O)c1nc(-c2cc(C)nc(C)c2)c(-n2nccc2C)nc1N
categoryLabel: NO
--
molecule: Cn1cc(-c2nc(C(=O)NCc3c(F)cccc3OC(F)F)c(N)nc2-c2ccc(F)cc2)ccc1=O
categoryLabel: YES
